Cited source for all entries: ChEMBL document CHEMBL1145562

What pIC50 was measured for each of the following?
- system.tested: C-C chemokine receptor type 2 (Homo sapiens)
- Sequence (P41597 whole entry): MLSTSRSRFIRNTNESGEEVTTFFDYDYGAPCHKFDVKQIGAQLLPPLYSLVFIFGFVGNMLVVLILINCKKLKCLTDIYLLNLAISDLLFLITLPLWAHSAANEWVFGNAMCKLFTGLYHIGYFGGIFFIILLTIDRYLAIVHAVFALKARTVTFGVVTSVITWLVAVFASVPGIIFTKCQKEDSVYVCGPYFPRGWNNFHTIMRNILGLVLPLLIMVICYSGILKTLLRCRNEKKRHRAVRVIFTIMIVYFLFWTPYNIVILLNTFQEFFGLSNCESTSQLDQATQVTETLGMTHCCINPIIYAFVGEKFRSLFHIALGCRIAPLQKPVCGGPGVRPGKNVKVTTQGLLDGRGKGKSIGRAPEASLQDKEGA
- test.protocol: Binding affinity at human CCR2 receptor
Scale: negative log10 of molar concentration, which is what pIC50 denotes.

Given the molecule COC(=O)c1ccc2[nH]cc(C3CCN(C(CO)C4CCN(C(=O)Nc5ccc(Cl)c(Cl)c5)CC4)CC3)c2c1 (stereo not drawn) , what is its reported pIC50?
7.30

Value lookup for pIC50; key = O=C(/C=C/c1ccc(F)c(Br)c1)N1CCC(C(CO)N2CCC(c3c[nH]c4ccccc34)CC2)CC1 (stereo not drawn)
8.70

Requested field: pIC50. Item: O=C(/C=C/c1cc(F)c(F)c(F)c1)N1CCC([C@@H](CO)N2CCC(c3c[nH]c4ccccc34)CC2)CC1
8.62

Name the reported pIC50 value associated with the molecule O=C(/C=C/c1cc(F)c(F)c(F)c1)N1CCC(C(CO)N2CCC(c3c[nH]c4ccc(O)cc34)CC2)CC1 (stereo not drawn)
9.00

Can you look up the measured pIC50 of CN(C)CC(C1CCN(C(=O)/C=C/c2cc(F)c(F)c(F)c2)CC1)N1CCC(c2c[nH]c3ccccc23)CC1 (stereo not drawn) for me?
5.32

Could you share which pIC50 value was measured for CC(=O)Nc1ccc2[nH]cc(C3CCN(C(CO)C4CCN(C(=O)/C=C/c5cc(F)c(F)c(F)c5)CC4)CC3)c2c1 (stereo not drawn) ?
8.70

Requested read-out: pIC50. Entry: COC(=O)c1ccc2[nH]cc(C3CCN(C(CO)C4CCN(C(=O)/C=C/c5cc(F)c(F)c(F)c5)CC4)CC3)c2c1 (stereo not drawn)
7.70

Query: pIC50; subject: O=C(/C=C/c1cccc(Br)c1)N1CCC(C(CO)N2CCC(c3c[nH]c4ccccc34)CC2)CC1 (stereo not drawn)
8.05
